Discharge in vitro (%) values by entry
Assay: Discharge in vitro of cyanine compound (urethra catheter, liquid chromatograph)
Parameters: species or system mouse
Details: sum of discharge over one week after dosage; relative value, amount in vivo after dosage = 100
Experimental: Discharge in vitro of a cyanine compound of contrast medium material was determined by fitting a urethra with a catheter and summing up the discharge over one week after the dosage, and represented by a relative value, based on the amount in vivo of the cyanine compound after the dosage thereof being 100. The discharge of a cyanine compound was determined using liquid chromatograph 2010 (available from Shimazu Corporation).
Measured Property: Discharge in vitro (%)

>  <Compound>
CC12CCC(/C=C/C=C/C=C3\CCC4(C)C3=[N+](CC(O)CS(=O)(=O)[O-])c3cccnc34)=C1N(CC(O)CS(=O)(=O)O)c1cccnc12 (stereo not shown)

>  <Result>
99.0%

$$$$
>  <Compound>
CC1(C)C(/C=C/C=C/C=C/C=C2/N(CCCCS(=O)(=O)O)c3ccc4cc(S(=O)(=O)O)cc(S(=O)(=O)[O-])c4c3C2(C)C)=[N+](CCCCS(=O)(=O)O)c2ccc3cc(S(=O)(=O)O)cc(S(=O)(=O)O)c3c21

>  <Result>
97.0%

$$$$
>  <Compound>
CC12CCC(/C=C/C=C/C3=CC(=C4\CCC5(C)C4=[N+](CC(O)CS(=O)(=O)O)c4ccc(S(=O)(=O)[O-])cc45)/CCC3)=C1N(CC(O)CS(=O)(=O)O)c1ccc(S(=O)(=O)O)cc12 (stereo not shown)

>  <Result>
99.0%

$$$$
>  <Compound>
CC1(C)C(/C=C/C=C/C=C/C=C2/N(CCCCS(=O)(=O)[O-])c3ccc4ccccc4c3C2(C)C)=[N+](CCCCS(=O)(=O)[O-])c2ccc3ccccc3c21.[Na+]

>  <Result>
99.0%

$$$$
